Subject Of Test: T1, recombinant human TROP2 extracellular domain (aa 1-274) comprising His tag (human, UniProt P09758 27-274)
T1 construct: Used here for all assays on recombinant human TROP2 (ELISA, immunoblot, SPR, crystal), although only some of them name the catalogue number; also called human recombinant TROP2; recombinant human TROP2 protein; not shown: His tag
T1 sequence: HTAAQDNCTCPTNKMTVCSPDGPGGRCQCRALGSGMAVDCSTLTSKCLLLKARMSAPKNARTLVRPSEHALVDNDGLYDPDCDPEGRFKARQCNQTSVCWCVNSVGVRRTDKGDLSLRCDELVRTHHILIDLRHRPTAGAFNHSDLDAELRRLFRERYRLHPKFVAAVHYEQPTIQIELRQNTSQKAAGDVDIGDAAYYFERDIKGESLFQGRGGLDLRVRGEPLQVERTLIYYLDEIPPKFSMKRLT
Test: competitive ELISA on coated recombinant human TROP2, competitor KD003-His (14285.7 pM per text), anti-His-HRP
Quantity: IC50 (read off the curve)

# Binder, Quantity, Result
records = [
    ("KD003 (antibody, human IgG1, V domains shown, also called anti-TROP2 sdAb KD003) VH: QVQLQESGGGMVQPGGSLRLSCAASGFTFSNYDMSWVRQAPGKGPEWVSYINAGGSNTDYPDSVKGRFTISRDNAKNMLYLLMNNLKPEDTALYRCARAKLTDTHYVEDYWGQGTQVTVSS", "IC50 (read off the curve)", "~30 nM"),
]

Then this binder:
Could you share which IC50 (read off the curve) value was measured for KD005 (antibody, human IgG1, V domains shown, also called anti-TROP2 sdAb KD005) VH: QVQLQESGGGLVEAGGSLRLSCAASGFTFSGSDMSWVRQAPGKGPEWVSYITSGGTTYYPDSVKGRFTISRDNAKNTLYLQMNSLKPDDTALYRCAKSRLTDSHYVEDAWGQGTQVTVSS ?
~40 nM

src = patent US20240360242A1
